Target: IXaPCEGF1:A2 subunit interaction
Test: A2 558-565 peptide inhibition of IXaPCEGF1:A2 subunit interaction (factor X activation, tenase system)
Assay type: biochemical, human
Settings: 100 nM IXaPCEGF1, 30 nM A2 subunit, 250 nM factor X, 25 μM PL (FIG. 5)
Description: Determination of the Apparent Kdpeptide of Binding of Each Factor IXa to the A2 558-565 Peptide. The apparent Kd (termed Kdpeptide) for binding of each factor IXa to the A2 558-565 peptide was determined by its ability to inhibit the respective IXa:A2 subunit interaction as measured by reduction in the rate of factor X activation in the tenase system. […] The amount of factor Xa generated was determined by hydrolysis of S-2222. […]
pIC50: −log10 of the molar value. No end group written: not given here.
reported-endpoint: pIC50

Q: Query (sequence): SVDQRGNQ [A2 558-565 peptide] ; field requested: pIC50
Ans: ~5.10
